So I've got a bunch of molecules here, and I need their MIC Enterococcus faecium (GC 4556) values.
Test system: Enterococcus sp.
assayProtocol: in vitro antibacterial evaluation, MIC by broth dilution
Format: cell-based
assayContext: broth dilution, 18 hours at 35° C.
Give bare numbers, in µg/mL.

CC(c1ccccc1)C1NC(=O)CNC(=O)C(CO)NC(=O)C(C(O)C2CNC(=N)N2C2OC(CO)C(O)C(O)C2O)NC(=O)C(C(O)C2CNC(=N)N2)NC(=O)C(Cc2ccc(OC3OC(CO)C(OC4OC(CO)C(OCC=Cc5ccc(N(C)C)cc5)C(O)C4O)C(O)C3O)cc2)NC1=O (stereo not shown) [Example 243a] = 32

Which MIC Enterococcus faecium (GC 4556) value is on record for CC(c1ccc(Cl)cc1)C1NC(=O)CNC(=O)C(CO)NC(=O)C(C(O)C2CNC(=N)N2C2OC(CO)C(O)C(O)C2O)NC(=O)C(C(O)C2CNC(=N)N2)NC(=O)C(Cc2ccc(OC3OC(CO)C(OC4OC5COC(C6CCCCC6)OC5C(O)C4O)C(O)C3O)cc2)NC1=O (stereo not shown) ?
1

====

What MIC Enterococcus faecalis (ATCC 29212) was measured for each of the following?
Tested on: Enterococcus sp.
assayProtocol: in vitro antibacterial evaluation, MIC by broth dilution
Assay type: cell-based
assayContext: broth dilution, 18 hours at 35° C.
One number for each entry, in µg/mL.

Field: MIC Enterococcus faecalis (ATCC 29212). Fill in for each record below.
1. CC(c1ccc(Cl)cc1)C1NC(=O)CNC(=O)C(CO)NC(=O)C(C(O)C2CNC(=N)N2C2OC(CO)C(O)C(O)C2O)NC(=O)C(C(O)C2CNC(=N)N2)NC(=O)C(Cc2ccc(OC3OC(CO)C(OC4OC5COC(c6ccccc6)OC5C(O)C4O)C(O)C3O)cc2)NC1=O (stereo not shown)
2. CCCCCNC(=O)OCC1OC(OC2C(CO)OC(Oc3ccc(CC4NC(=O)C(C(C)c5ccccc5)NC(=O)CNC(=O)C(CO)NC(=O)C(C(O)C5CNC(=N)N5C5OC(CO)C(O)C(O)C5O)NC(=O)C(C(O)C5CNC(=N)N5)NC4=O)cc3)C(O)C2O)C(O)C(O)C1O (stereo not shown) [Example 251b]
3. COc1ccc2cc(C3OCC4OC(OC5C(CO)OC(Oc6ccc(CC7NC(=O)C(C(C)c8ccccc8)NC(=O)CNC(=O)C(CO)NC(=O)C(CC8CNC(=N)N8C8OC(CO)C(O)C(O)C8O)NC(=O)C(CC8CNC(=N)N8)NC7=O)cc6)C(O)C5O)C(O)C(O)C4O3)ccc2c1 (stereo not shown)
4. CC(c1ccccc1)C1NC(=O)CNC(=O)C(CO)NC(=O)C(C(O)C2CNC(=N)N2C2OC(CO)C(O)C(O)C2O)NC(=O)C(C(O)C2CNC(=N)N2)NC(=O)C(Cc2ccc(OC3OC(CO)C(OC4OC5COC6(CCCCCCCCCCCC6)OC5C(O)C4O)C(O)C3O)cc2)NC1=O (stereo not shown)

[0.5, 64, 32, 32]

Please give MIC Enterococcus faecalis (ATCC 29212) for each item listed below.
1. CC(c1ccccc1)C1NC(=O)CNC(=O)C(CO)NC(=O)C(CC2CNC(=N)N2C2OC(CO)C(O)C(O)C2O)NC(=O)C(CC2CNC(=N)N2)NC(=O)C(Cc2ccc(OC3OC(CO)C(OC4OC5COC6(OC5C(O)C4O)C4CC5CC(C4)CC6C5)C(O)C3O)cc2)NC1=O (stereo not shown)
2. CC(c1ccccc1)C1NC(=O)CNC(=O)C(CO)NC(=O)C(CC2CNC(=N)N2C2OC(CO)C(O)C(O)C2O)NC(=O)C(CC2CNC(=N)N2)NC(=O)C(Cc2ccc(OC3OC(CO)C(OC4OC(CO)C(O)C(OCc5ccc(OCc6ccccc6)cc5)C4O)C(O)C3O)cc2)NC1=O (stereo not shown) [Example 246b]

1. 16
2. 128
